The following compounds are listed with their measured CC50 values.
System: TZM
assay_method_text: Cytotoxicity against human TZM-bl cells after 72 hrs by MTT assay
Type: cell-based
details: tzm, 72 h

>  <compound>
Cc1cc2c(c(O)c1-c1c(C)cc3c(c1O)/C(=C/N[C@H](C(=O)[O-])C(C)C)C(=O)C(O)=C3C(C)C)/C(=C/N[C@H](C(=O)[O-])C(C)C)C(=O)C(O)=C2C(C)C.[Na+].[Na+] (stereo in doubt; (-)-9a)

>  <display_unit>
µM

>  <CC50>
49.9

$$$$
>  <compound>
Cc1cc2c(c(O)c1-c1c(C)cc3c(c1O)/C(=C/NC(C)C(=O)NCC(=O)O)C(=O)C(O)=C3C(C)C)/C(=C/NC(C)C(=O)NCC(=O)O)C(=O)C(O)=C2C(C)C (single isomer, unassigned; (-))

>  <display_unit>
µM

>  <CC50>
40.3

$$$$
>  <compound>
Cc1cc2c(c(O)c1-c1c(C)cc3c(c1O)/C(=C/NC(C)C(=O)NC(C)C(=O)NC(C)C(=O)[O-])C(=O)C(O)=C3C(C)C)/C(=C/NC(C)C(=O)NC(C)C(=O)NC(C)C(=O)[O-])C(=O)C(O)=C2C(C)C.[Na+].[Na+] (single isomer, unassigned; (-))

>  <display_unit>
µM

>  <CC50>
39.4

$$$$
